ASSAY_NOTES: Stability of compound in 0.01 M PBS buffer at 50 uM measured after 52 hrs by LC-MS analysis (reference value: 98.7 %)
Type: physicochemical
TEST_SETTINGS: read-out: Stability
OBSERVATION_TYPE: remaining at 52 h, 50 µM (%)
Express the result in % but write the number alone.

Query block: Answer with reported remaining at 52 h, 50 µM of OC[C@H]1O[C@@H](OCCCc2ccc(O)c(/C=N/O)n2)[C@H](O)[C@@H](O)[C@@H]1O
Result block: 91.4

---

ASSAY_NOTES: Stability of compound in 0.01 M PBS buffer at 50 uM measured after 52 hrs by LC-MS analysis (reference value: 99.2 %)
Type: physicochemical
TEST_SETTINGS: read-out: Stability
OBSERVATION_TYPE: remaining at 52 h, 50 µM (%)
Report the value in % with no unit label.

Query block: For OC[C@H]1O[C@@H](OCCCCc2cn(CCCc3ccc(O)c(/C=N/O)n3)nn2)[C@H](O)[C@@H](O)[C@@H]1O , write its remaining at 52 h, 50 µM.
Result block: 90.9

Ref: ChEMBL document CHEMBL5046293
